test system: Bovine viral diarrhea virus 1; assay: Antiviral activity against Bovine viral diarrhea virus infected in MDBK cells assessed as inhibition of virus-induced cytopathicity after 3 to 4 days by MTT assay; format: functional, organism-based; conditions: Bovine viral diarrhea virus isolates and strains
Assign EC50 to each entry below.

# get_value(readout='EC50', item= Cc1c(/N=N/c2ccccc2)ccc(NC[C@@H]2CCCN3CCCC[C@H]23)c1C ) 2.5 µM

# get_value(readout='EC50', item= CN(C)CCCN(/N=N/c1c(F)cccc1F)c1ccccc1 ) > 45 µM

# get_value(readout='EC50', item= O=c1cnn([C@@H]2O[C@H](CO)[C@@H](O)[C@H]2O)c(=O)[nH]1 ) > 100 µM

# get_value(readout='EC50', item= Fc1ccc(F)c(/N=N/Nc2ccccc2)c1 ) > 100 µM

# get_value(readout='EC50', item= CN(C)CCCNc1ccc(/N=N/c2cccc([N+](=O)[O-])c2)cc1 ) 16 µM

# get_value(readout='EC50', item= CN(C)CCCN(/N=N/c1ccccc1)c1cccc(C(F)(F)F)c1 ) > 38 µM

# get_value(readout='EC50', item= c1ccc(CN/N=N/c2ccccc2)cc1 ) > 100 µM

# get_value(readout='EC50', item= CN(C)CCCN(/N=N/c1ccc([N+](=O)[O-])cc1)c1ccccc1 ) ≥ 39 µM

# get_value(readout='EC50', item= Fc1ccc(F)c(/N=N/Nc2cc(F)ccc2F)c1 ) > 100 µM

# get_value(readout='EC50', item= O=[N+]([O-])c1cccc(/N=N/Nc2ccccc2)c1 ) 19 µM

# get_value(readout='EC50', item= CN(/N=N/c1ccccc1)c1ccccc1 ) > 100 µM

# get_value(readout='EC50', item= O=[N+]([O-])c1cccc(/N=N/Nc2cccc([N+](=O)[O-])c2)c1 ) > 100 µM

# get_value(readout='EC50', item= CN(/N=N/c1cccc([N+](=O)[O-])c1)c1ccccc1 ) > 82 µM

# get_value(readout='EC50', item= Cc1ccc(/N=N/N(C)c2ccccc2)cc1 ) > 100 µM

# get_value(readout='EC50', item= Fc1ccc(F)c(/N=N/c2ccc(NC[C@@H]3CCCN4CCCC[C@H]34)c3c2CCCC3)c1 ) > 64 µM

# get_value(readout='EC50', item= CN(C)CCCN(/N=N/c1ccccc1)c1ccccc1 ) ≥ 95 µM

# get_value(readout='EC50', item= FC(F)(F)c1cccc(N(C[C@@H]2CCCN3CCCC[C@H]23)/N=N/c2ccccc2)c1 ) > 22 µM

# get_value(readout='EC50', item= c1ccc(/N=N/Nc2ccccc2)cc1 ) > 100 µM

# get_value(readout='EC50', item= CN(C)CCCNc1ccc(/N=N/c2cc(F)ccc2F)cc1 ) 9 µM

# get_value(readout='EC50', item= Fc1ccc(F)c(/N=N/Nc2cccc(C(F)(F)F)c2)c1 ) > 100 µM

# get_value(readout='EC50', item= FC(F)(F)c1cccc(/N=N/c2ccc(NC[C@@H]3CCCN4CCCC[C@H]34)c3c2CCCC3)c1 ) 7 µM

# get_value(readout='EC50', item= NCCCC[C@H](N)C(=O)Nc1cccc(-c2ccc(NC(=O)Nc3nc4ccccc4s3)nc2)c1 ) 0.6 µM

# get_value(readout='EC50', item= Brc1ccc(Cn2ccc3nc(-c4ccccc4)nc-3c2)cc1 ) 0.03 µM

# get_value(readout='EC50', item= Cc1c(/N=N/c2cccc(C(F)(F)F)c2)ccc(NC[C@@H]2CCCN3CCCC[C@H]23)c1C ) 7 µM

# get_value(readout='EC50', item= NC(=O)c1ncn([C@@H]2O[C@H](CO)[C@@H](O)[C@H]2O)n1 ) 7 µM

# get_value(readout='EC50', item= Cn1c2cc(N3CCN(c4ccccn4)CC3)c(N)cc2c(=O)c2c(O)cc(O)cc21 ) 0.6 µM

# get_value(readout='EC50', item= Cc1ccc(/N=N/c2ccc(NCCCN(C)C)cc2)cc1 ) > 100 µM

# get_value(readout='EC50', item= CN(C)CCCNc1ccc(/N=N/c2ccc([N+](=O)[O-])cc2)cc1 ) > 100 µM

# get_value(readout='EC50', item= CN(C)CCCN(/N=N/c1cc(F)ccc1F)c1ccccc1 ) > 25 µM

# get_value(readout='EC50', item= Nc1nc2c(ncn2COCCO)c(=O)[nH]1 ) > 100 µM

# get_value(readout='EC50', item= COc1c(C)c2c(c(O)c1C/C=C(\C)CCC(=O)O)C(=O)OC2 ) > 42 µM

# get_value(readout='EC50', item= CN(C)CCCNc1ccc(/N=N/c2ccccc2)cc1 ) 1.6 µM

# get_value(readout='EC50', item= Fc1ccc(/N=N/c2ccc(NC[C@@H]3CCCN4CCCC[C@H]34)c3c2CCCC3)c(F)c1 ) > 11 µM

# get_value(readout='EC50', item= c1ccc(/N=N/c2ccc(NC[C@@H]3CCCN4CCCC[C@H]34)c3c2CCCC3)cc1 ) 30 µM

# get_value(readout='EC50', item= CN(C)CCCNc1ccc(/N=N/c2c(F)cccc2F)cc1 ) ≥ 20 µM

# get_value(readout='EC50', item= FC(F)(F)c1cccc(N/N=N/c2ccccc2)c1 ) > 100 µM

# get_value(readout='EC50', item= CCCN(CCC)CCSc1n[nH]c2c3ccccc3nc-2n1 ) 0.03 µM

# get_value(readout='EC50', item= Cc1ccc(/N=N/N(CCCN(C)C)c2ccccc2)cc1 ) > 100 µM

# get_value(readout='EC50', item= CN(C)CCCN(/N=N/c1cc(F)ccc1F)c1cccc(C(F)(F)F)c1 ) 90 µM

# get_value(readout='EC50', item= CN(Cc1ccccc1)/N=N/c1ccccc1 ) > 100 µM

# get_value(readout='EC50', item= CN(C)CCCN(/N=N/c1cccc([N+](=O)[O-])c1)c1ccccc1 ) > 37 µM

Numbers sourced from ChEMBL document CHEMBL1154067.
